These entries and their values trace back to patent US20030148958A1.

CRF1R Emax % values for the binders below. Further: reference of the scale not given here.
Target: CRF1R; further: reference of the scale not given here
Assay: cell-based or functional assay
Ends that are not written are not given here.
Supply the numeric figure in %, leaving out any unit text.

| Binder | Unit Of Measure | Reading |
| --- | --- | --- |
| ZGPPISIDLPLQLLRKMIEIEKQEKEKQQAANNALLLDTI (not fully specified; C-terminal amide) [SEQ ID NO 248] | % | 32 |
| ZGPPISIDLPFYLLRKMIEIEKQEKEKQQAANNALLLDTI (C-terminal amide) [SEQ ID NO 230] | % | 100 |
| PSLSIDLPLLLLRTLLELEKTQSQRERAEQNARIFARV-NH2 [SEQ ID NO 333] | % | 43.8 |
| IVLSLDVPIGLLQKMIEIEKQEKEKQQATTNARILARV-NH2 [SEQ ID NO 322] | % | 10.7 |
| DNPSLSIDLPQYLLRTLLELARTQSQRERAEQNAIIFASV-NH2 [SEQ ID NO 339] | % | 13.2 |

What value of CRF1R Emax % has been reported for the following binder? ZGPPISIDLPFHLLRKMIEIEKQEKEKQQAANNALLLATI (C-terminal amide) [SEQ ID NO 229]
100

What value of CRF1R Emax % has been reported for the following binder? ZGPPISIDLSLELLRKMIEIEKQEKEKQQAANNRLLLDTI (C-terminal amide) [SEQ ID NO 355]
100

What value of CRF1R Emax % has been reported for the following binder? NDDPPISIDLPLQLLRNMIEMARIENEREQAGLNAKYLAEV-NH2 [SEQ ID NO 270]
7.85

What value of CRF1R Emax % has been reported for the following binder? ZGPPISIDLPQILLRKVIEIEKQEKEKQQAANNARLLARI (C-terminal amide) [SEQ ID NO 294]
13.6
